Data origin, for the record: PubChem BioAssay (EPA / NIEHS)

assay.notes: ATG_TCF_b_cat_CIS: Attagene CIS-FACTORIAL HepG2 Assay for human T-Cell-Factor with beta-catenin (TCF/b-cat) (AID 2282965)
measurement.conditions: HepG2 TCF/beta-catenin cis-reporter transcription, actives raise or lower the signal
Calls of active or inactive are those of the source. Rule for the calls: active = hit-call score of the fitted dose curve at least 0.9, where 1 is the maximum; inactive = score below 0.9.
metric.name: AC50

> print(dat)
                                    compound            result
 1            CCCSc1ccc2nc(NC(=O)OC)[nH]c2c1          inactive
 2                               COCCOCCOCCO          inactive
 3                           CCCCCCOC(=O)CCC          inactive
 4               CCCC[O][Al]([O]CCCC)[O]CCCC          inactive
 5             Nc1ccc(NCCO)c([N+](=O)[O-])c1          inactive
 6  Cc1ccc(S(=O)(=O)Oc2ccc(N=Nc3ccc(-c4ccc(N=Nc5c(O)ccc6cc(S(=O)(=O)O)cc(S(=O)(=O)O)c56)c(C)c4)cc3C)cc2)cc1          inactive
 7  Clc1ccc(C(c2ccccc2Cl)C(Cl)Cl)cc1 (stereo unspecified)  59.9 µM (active)
 8                                N#Cc1cscn1          inactive
 9               CCCCOC(=O)CCCCCCCC(=O)OCCCC   128 µM (active)
10  CCCC1O[C@@H]2C[C@H]3[C@@H]4CCC5=CC(=O)C=C[C@]5(C)[C@H]4[C@@H](O)C[C@]3(C)[C@]2(C(=O)CO)O1 (stereo partly specified)   100 µM (active)
11   CC1CC(O)CC(C)(C)C1 (stereo unspecified)          inactive
12       O=C1OC(=O)c2c(Br)c(Br)c(Br)c(Br)c21          inactive
13                                 NCc1ccco1          inactive
14  CN(C)CCOc1ccc(/C(=C(/CCCl)c2ccccc2)c2ccccc2)cc1          inactive
15      [O-]n1ccccc1=S.[O-]n1ccccc1=S.[Zn+2]          inactive
16                          CC/C=C\CC/C=C/CO          inactive
17                                 CC(C)OCCO          inactive
18                 Cc1c(Cl)cccc1[N+](=O)[O-]          inactive
19                       c1ccc(Oc2ccccc2)cc1          inactive
20                      O=C(O)CCCCCCCCC(=O)O          inactive
21                               ON=C1CCCCC1          inactive
22                     CC(C)Nc1nc(N)nc(Cl)n1          inactive
23                               C=Cc1ccncc1    57 µM (active)
24  CCOC(=O)COC(=O)c1cc(Oc2ccc(C(F)(F)F)cc2Cl)ccc1[N+](=O)[O-]          inactive
25                      O=C(O)c1cccnc1C(=O)O          inactive
26        CCOC(=O)C(C#N)=C(c1ccccc1)c1ccccc1    26 µM (active)
27                               OCCc1ccccc1          inactive
28                        NCCNc1cccc2ccccc12  49.8 µM (active)
29                            C=Cc1ccc(C)cc1          inactive
30                               CC1(C)COCN1          inactive
31                    COC(=O)C=C(C)CCC=C(C)C          inactive

----------
experimental.target: Nuclear receptor subfamily 4 group A member 2 (Homo sapiens)
assay.notes: ATG_NURR1_TRANS: Attagene TRANS-FACTORIAL HepG2 Assay for human Nuclear Receptor Related Protein 1 (NURR1) (AID 2282985)
measurement.conditions: HepG2 Attagene TRANS reporter, mRNA readout
Records with an inconclusive call do not appear. Active and inactive are the calls of the source. How the source made its calls: active means hit-call score of the fitted dose curve at least 0.9, where 1 is the maximum; inconclusive means response in the unintended direction; inactive means score below 0.9.
Possible outcomes: y (active), n (inactive)

> print(dat)
                                    compound  category
 1                              CCCCCc1ccco1         n
 2                Cc1ccc(OC(=O)c2ccccc2O)cc1         n
 3                  COC(=O)Nc1ccc(Cl)c(Cl)c1         y
 4                          c1ccc2[nH]cnc2c1         n
 5  CC(=O)c1c(C)c([N+](=O)[O-])c(C(C)(C)C)c([N+](=O)[O-])c1C         y
 6  CC1(C)O[C@@H]2[C@@H](CO[C@@]3(COS(N)(=O)=O)OC(C)(C)O[C@@H]23)O1         n
 7  CC1=CC[C@@]23C[C@@H]1C(C)(C)[C@@H]2CC[C@H]3C         n
 8  C[C@@H]1CCN(C(=O)[C@H](CCCN=C(N)N)NS(=O)(=O)c2cccc3c2NC[C@H](C)C3)[C@@H](C(=O)O)C1         n
 9                          C=CCOC(=O)CCCCCC         n
10               C=C(C)[C@@H]1CC=C(C)C(=O)C1         n
11  CCCCCCC(O)CCCCCCCCCCC(=O)O (stereo not drawn)         n
12  CCCCC(CC)COC(=O)c1ccc(O)cc1 (stereo not drawn)         n
13                             C=COCCOCCOC=C         n
14  C#CC(C)N(C)C(=O)Nc1ccc(Cl)cc1 (stereo not drawn)         n
15                             C=CCCCCCCCCCC         n
16     N#Cc1ccc(CC(=O)c2cccc(C(F)(F)F)c2)cc1         y
17   C1=CC2C3C=CC(C3)C2C1 (stereo not drawn)         n
18  O=C1OC2(c3ccccc31)c1ccc(O)c(Br)c1Oc1c2ccc(O)c1Br         n
19                      COc1ccc(COC(C)=O)cc1         n
20          CC(C)(CO)[C@@H](O)C(=O)NCCC(=O)O         n
21                            CC(=O)c1ccccn1         n
22  O=C(c1ccccc1)C(O)c1ccccc1 (stereo not drawn)         n
23                     O=C1CCCC=CCCCCCCCCCC1         y
24  Clc1cc(Cl)c(-c2c(Cl)c(Cl)cc(Cl)c2Cl)cc1Cl         n
25                           COc1cccc(OC)c1O         n
26                 CC(C)CCCCCCCCCCCCCCC(=O)O         n
27   CCCCCCCC(=O)OCC(O)CO (stereo not drawn)         n
28          CCCC(C)C(O)CC (stereo not drawn)         n

----------
assay.notes: CCTE_Shafer_MEA_acute_per_network_burst_spike_number_mean: CCTE's Neural Acute Assay for Average Number of Spikes in a Network Burst, Shafer Lab (AID 2284019)
Active and inactive are the calls of the source. The calls were made as follows: active = hit-call score of the fitted dose curve at least 0.9, where 1 is the maximum; inactive = score below 0.9.
Possible outcomes: active, inactive

> print(dat)
                                   compound  category
1  CC(CN=Cc1ccccc1O)N=Cc1ccccc1O (stereo unspecified)    active
2                     CN(C)C(=S)SC(=S)N(C)C  inactive
3        CCOC(=O)C(C#N)=C(c1ccccc1)c1ccccc1  inactive
4  Oc1c(Cl)cc(Cl)c(Cl)c1Cc1c(O)c(Cl)cc(Cl)c1Cl  inactive
5  C=CC(C)(O)CCC=C(C)C (stereo unspecified)  inactive
6  COCCc1ccc(OCC(O)CNC(C)C)cc1 (stereo unspecified)  inactive

----------
experimental.target: Nuclear respiratory factor 1 (Homo sapiens) (UniProt Q16656)
Sequence (Q16656 whole entry, looked up): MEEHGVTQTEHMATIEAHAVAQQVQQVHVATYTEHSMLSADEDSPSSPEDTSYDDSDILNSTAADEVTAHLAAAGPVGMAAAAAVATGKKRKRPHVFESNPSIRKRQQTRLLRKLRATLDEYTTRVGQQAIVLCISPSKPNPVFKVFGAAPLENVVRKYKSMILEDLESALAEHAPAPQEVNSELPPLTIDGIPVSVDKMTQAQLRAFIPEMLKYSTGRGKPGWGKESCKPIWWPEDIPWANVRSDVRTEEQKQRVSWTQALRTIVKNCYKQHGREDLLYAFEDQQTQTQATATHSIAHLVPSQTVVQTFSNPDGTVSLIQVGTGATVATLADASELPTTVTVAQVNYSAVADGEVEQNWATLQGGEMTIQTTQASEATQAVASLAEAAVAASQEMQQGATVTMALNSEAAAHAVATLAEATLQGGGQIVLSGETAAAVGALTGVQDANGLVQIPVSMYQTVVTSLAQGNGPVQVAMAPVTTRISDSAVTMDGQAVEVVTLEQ
assay.notes: ATG_NRF1_CIS: Attagene CIS-FACTORIAL HepG2 Assay for human Nuclear Respiratory Factor 1 (NRF1) Orphan Gene (AID 2282987)
measurement.conditions: HepG2 NRF1 cis-element reporter, Attagene multiplex; actives raise or lower the signal
The source made the active and inactive calls. The calls were made as follows: active = hit-call score of the fitted dose curve at least 0.9, where 1 is the maximum; inactive = score below 0.9.
metric.name: outcome

> print(dat)
                               smiles.entry                       experimental.target    result
1  CN(c1nccc(=O)[nH]1)C1CCN(c2nc3ccccc3n2Cc2ccc(F)cc2)CC1  Nuclear respiratory factor 1 (Homo sapiens) (UniProt Q16656)  inactive
2  COc1ccc(CCN2CCC(Nc3nc4ccccc4n3Cc3ccc(F)cc3)CC2)cc1  Nuclear respiratory factor 1 (Homo sapiens) (UniProt Q16656)  inactive
3                    Cc1ccc2c(c1)C(=O)OC2=O  Nuclear respiratory factor 1 (Homo sapiens) (UniProt Q16656)  inactive
4                       CCN(CC)C(=O)N(CC)CC  Nuclear respiratory factor 1 (Homo sapiens) (UniProt Q16656)  inactive
5                        CCOC(=O)CCc1ccccc1  Nuclear respiratory factor 1 (Homo sapiens) (UniProt Q16656)  inactive
6                 CC(C)CCCCCCCCCCCCCCC(=O)O  Nuclear respiratory factor 1 (Homo sapiens) (UniProt Q16656)  inactive
7                               ON=C1CCCCC1  Nuclear respiratory factor 1 (Homo sapiens) (UniProt Q16656)  inactive
8                             CN(C)c1ccncc1  Nuclear respiratory factor 1 (Homo sapiens) (UniProt Q16656)  inactive
